The measured values listed here are drawn from PubChem BioAssay AID248.

- Test system: L1210 leukemia ip in BDF1 mice, survival T/C
- ASSAY NOTES: NCI In Vivo Anticancer Drug Screen. Data for tumor model L1210 Leukemia (intraperitoneal) in B6D2F1 (BDF1) mice
- SETTINGS: endpoint: mean survival time; dose: 100.0 mg/kg/injection; schedule: Q04DX003 (ip); vehicle: Klucel (hydroxypropylcellulose) (HPC); higher = longer survival
Toxic doses and inconclusive results are not listed.
As shown below, each of these compounds has a reported T/C value.
ENDPOINT NAME: T/C

compound=Cc1ccc(S(=O)(=O)N(C)c2cc(Cl)c(C#N)c(Cl)c2)cc1 readout_value="102 % of control"
compound="CCC(Br)C(=O)Nc1c(C)cccc1Cl (stereo not drawn)" readout_value="97 % of control"
compound=CCOc1ccc(/C=C/[N+](=O)[O-])cc1 readout_value="94 % of control"

====

As shown below, each of these molecules has a reported T/C value.
- Test system: L1210 leukemia ip in BDF1 mice, survival T/C
- ASSAY NOTES: NCI In Vivo Anticancer Drug Screen. Data for tumor model L1210 Leukemia (intraperitoneal) in B6D2F1 (BDF1) mice
- SETTINGS: endpoint: mean survival time; dose: 100.0 mg/kg/injection; schedule: Q01DX009 (ip); vehicle: saline with Tween-80; higher = longer survival
Toxic doses and inconclusive results are not listed.
ENDPOINT NAME: T/C

molecule=CC(=O)Nc1ccc(NC(=O)Nc2ccc(C)cc2)cc1 readout_value="90 % of control"
molecule=Cc1ccc(C(=O)CCCCCCCCC(=O)c2ccc(C)cc2)cc1 readout_value="89 % of control"
molecule=CC(=O)NCc1ccccc1 readout_value="97 % of control"

====

- Test system: L1210 leukemia ip in BDF1 mice, survival T/C
- ASSAY NOTES: NCI In Vivo Anticancer Drug Screen. Data for tumor model L1210 Leukemia (intraperitoneal) in B6D2F1 (BDF1) mice
- SETTINGS: endpoint: mean survival time; dose: 400.0 mg/kg/injection; schedule: Q04DX003 (ip); vehicle: Klucel (hydroxypropylcellulose) (HPC); higher = longer survival
Inconclusive results and toxic doses are left out.
ENDPOINT NAME: T/C

compound=S=C1NC2(CCCCC2)NC12CCCCC2 readout_value="101 % of control"
compound=CCOC(=O)C(=O)c1c(C)[nH]c2ccccc12 readout_value="97 % of control"
compound=CC(=O)OC1=C(Cl)C(=O)C(OC(C)=O)=C(Cl)C1=O readout_value="92 % of control"
compound=CCCCCCCCCCCCCCSc1ccc2ccccc2c1 readout_value="87 % of control"
compound=CSc1ncc(C(=O)O)c(=O)[nH]1 readout_value="102 % of control"
compound=N#CC(C#N)=NNc1cccc(Cl)c1 readout_value="101 % of control"
compound="CC(NC(=O)CNC(=O)CNC(=O)OCc1ccccc1)C(=O)O (stereo unspecified)" readout_value="91 % of control"
compound=NC(=O)C/C=C/CC(N)=O readout_value="102 % of control"
compound=FC(F)(F)c1ccc2c(c1)N(CCCCl)c1ccccc1S2 readout_value="115 % of control"
compound=CCOc1c(/C=N/NC(=O)c2ccccc2OC)cccc1OC readout_value="107 % of control"
compound=Cc1c([N+](=O)[O-])ccc2ccccc12 readout_value="100 % of control"
compound="COC(=O)C1=COC(C)C2CN3CCc4c([nH]c5ccccc45)C3CC12 (stereo unspecified)" readout_value="100 % of control"
compound=CCc1ccccc1NC(=O)Nc1ccccc1 readout_value="95 % of control"
compound=CC(C)(C)c1cc(CO)cc(C(C)(C)C)c1O readout_value="105 % of control"
compound=CN(C(=O)N(C)c1ccccc1)c1ccccc1 readout_value="103 % of control"
compound="OC1CCCC2CCCNC12 (stereo unspecified) (tested in a mixture with another compound)" readout_value="89 % of control"
compound=Cc1ccc(C)c(NC(=O)Oc2ccc(C(=O)OCc3ccccc3)cc2)c1 readout_value="101 % of control"
compound=O=[N+]([O-])c1ccc(Cl)c2ncccc12 readout_value="102 % of control"
compound=O=S(=O)(Nc1ccccc1)c1ccccc1 readout_value="98 % of control"
compound=COc1cc2c(cc1OC(C)=O)C(=O)CCCC2 readout_value="96 % of control"
compound=O=C(CCNNC(=O)c1ccncc1)NCc1ccccc1 readout_value="95 % of control"
compound="O=C(c1ccccc1)C(Br)c1ccc([N+](=O)[O-])cc1 (stereo unspecified)" readout_value="103 % of control"
compound=Nc1[nH]c(=S)ncc1-c1ccc(Cl)c(Cl)c1 readout_value="93 % of control"
compound=Cc1ccc2c(c1)Sc1ccc3ccccc3c1N2 readout_value="92 % of control"
compound=COc1ccc2c(c1)c(CC(=O)O)c(Br)n2Cc1ccccc1 readout_value="102 % of control"
compound=c1ccc2cc3c(cc2c1)oc1cc2ccccc2cc13 readout_value="107 % of control"
